Assay: APR_HepG2_MicrotubuleCSK_72hr: Apredica 72-hour HepG2 Assay for Microtubule CSK Stabilty (AID 2282919)
Settings: HepG2 microtubule cytoskeleton, high-content imaging, actives raise or lower the signal
Calls of active or inactive are those of the source. The calls were made as follows: active = hit-call score of the fitted dose curve at least 0.9, where 1 is the maximum; inactive = score below 0.9.
Pick one: active, inactive

Challenge: So what was the verdict on CC(=O)S[C@@H]1CC2=CC(=O)CC[C@]2(C)[C@H]2CC[C@@]3(C)[C@@H](CC[C@@]34CCC(=O)O4)[C@H]12 in this test?
Response given: inactive

Challenge: So what was the verdict on C#C[C@]1(O)CC[C@H]2[C@@H]3CCC4=CC(=O)CC[C@@H]4[C@H]3CC[C@@]21CC in this test?
Response given: inactive

Challenge: So what was the verdict on S=C([S-])NCCNC(=S)[S-].[Mn+2] in this test?
Response given: active

Challenge: So what was the verdict on CCCCCCC(C)OC(=O)COc1nc(F)c(Cl)c(N)c1Cl (stereo unspecified) in this test?
Response given: active

Challenge: So what was the verdict on COC(=O)c1c(Cl)nn(C)c1S(=O)(=O)NC(=O)Nc1nc(OC)cc(OC)n1 in this test?
Response given: inactive

Challenge: So what was the verdict on COCCO in this test?
Response given: inactive

Challenge: So what was the verdict on COC(=O)CSc1cc(N=c2sc(=O)n3n2CCCC3)c(F)cc1Cl in this test?
Response given: inactive

Challenge: So what was the verdict on COC(=O)c1ccc(I)cc1S(=O)(=O)NC(=O)Nc1nc(C)nc(OC)n1 in this test?
Response given: inactive

Challenge: So what was the verdict on COC(=O)c1cccc(C)c1S(=O)(=O)NC(=O)Nc1nc(OCC(F)(F)F)nc(N(C)C)n1 in this test?
Response given: inactive

Challenge: So what was the verdict on COc1c(Cl)ccc(Cl)c1C(=O)O in this test?
Response given: inactive

Challenge: So what was the verdict on CCCCC(CC)COC(=O)c1ccccc1C(=O)O (stereo unspecified) in this test?
Response given: inactive

====

For each record, write down the corresponding AC50.
Molecular target: chimpanzee Androgen Receptor (AR), AR (gene 747460)
Experiment: NVS_NR_cAR: NovaScreen (NVS) Nuclear Receptor Binding Assay for chimpanzee Androgen Receptor (AR) (AID 2283346);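 also: radioligand displacement from AR measured by scintillation counting in a cell-free assay; a loss of bound radioligand signal versus DMSO counts as binding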
Records with an inconclusive call do not appear. Activity calls are given as the source filed them. How the source made its calls: active means hit-call score of the fitted dose curve at least 0.9, where 1 is the maximum; inconclusive means response in the unintended direction; inactive means score below 0.9.

Challenge: Using the record for Oc1ccc(C(c2ccc(O)cc2)C(Cl)(Cl)Cl)cc1 , state its measured AC50.
Response given: 6.15 µM (active)

Challenge: Using the record for C=CCOC(Cn1ccnc1)c1ccc(Cl)cc1Cl (configuration not stated) , state its measured AC50.
Response given: 9.9 µM (active)

Challenge: Using the record for S=C(S)NCCNC(=S)S.[Mn+2].[S-]C([S-])=NCCN=C([S-])[S-].[Zn+2] , state its measured AC50.
Response given: 12.5 µM (active)

Challenge: Using the record for CSC(=O)c1cccc2nnsc12 , state its measured AC50.
Response given: 1.02 µM (active)

Challenge: Using the record for CN(C)C(=O)Nc1ccc(Cl)c(Cl)c1 , state its measured AC50.
Response given: 25 µM (active)

Challenge: Using the record for C[C@]12C[C@H](O)[C@H]3[C@@H](CCC4=CC(=O)CC[C@@]43C)[C@@H]1CC[C@@H]2C(=O)CO , state its measured AC50.
Response given: 4.56 µM (active)

====

Experiment: Tanguay_ZF_120hpf_YSE_legacy: (Legacy) Oregon State University Tanguay Lab 120 Hour Post-fertilization zebrafish Assay for Yolk Sac Edema (AID 2283634)
Records with an inconclusive call do not appear. Activity calls are given as the source filed them. How the source made its calls: active means hit-call score of the fitted dose curve at least 0.9, where 1 is the maximum; inconclusive means response in the unintended direction; inactive means score below 0.9.
Pick one: active, inactive

Challenge: So what was the verdict on CCOC(=O)C(C)Oc1ccc(Oc2cnc3cc(Cl)ccc3n2)cc1 (stereo not given) in this test?
Response given: inactive

Challenge: So what was the verdict on C=CCOC(Cn1ccnc1)c1ccc(Cl)cc1Cl (stereo not given) in this test?
Response given: active

Challenge: So what was the verdict on CCCCOCCOCCOCc1cc2c(cc1CCC)OCO2 in this test?
Response given: active

Challenge: So what was the verdict on C#CCOC(=O)[C@@H](C)Oc1ccc(Oc2ncc(Cl)cc2F)cc1 in this test?
Response given: inactive

Challenge: So what was the verdict on CCCCOC(=O)C(C)Oc1ccc(Oc2ccc(C(F)(F)F)cn2)cc1 (stereo not given) in this test?
Response given: inactive

Challenge: So what was the verdict on C[C@]12C[C@H](O)[C@H]3[C@@H](CCC4=CC(=O)CC[C@@]43C)[C@@H]1CC[C@@H]2C(=O)CO in this test?
Response given: inactive

Challenge: So what was the verdict on CC(C)CCCCCCc1ccc(O)cc1 in this test?
Response given: inactive

Challenge: So what was the verdict on c1ccc(Nc2ccccc2)cc1 in this test?
Response given: active

Challenge: So what was the verdict on CCOC(=O)COc1cc(-n2ncc(C(F)(F)F)c(C)c2=O)c(F)cc1Cl in this test?
Response given: inactive

Challenge: So what was the verdict on Oc1ccc(C(c2ccc(O)cc2)C(Cl)(Cl)Cl)cc1 in this test?
Response given: inactive

Challenge: So what was the verdict on OB(O)O in this test?
Response given: inactive

Challenge: So what was the verdict on CCCCC(CC)CN1C(=O)C2C3C=CC(C3)C2C1=O (stereo not given) in this test?
Response given: inactive

Challenge: So what was the verdict on CCN(Cc1c(F)cccc1Cl)c1c([N+](=O)[O-])cc(C(F)(F)F)cc1[N+](=O)[O-] in this test?
Response given: inactive

Challenge: So what was the verdict on N#CSCSc1nc2ccccc2s1 in this test?
Response given: inactive

Challenge: So what was the verdict on CSC(=O)c1cccc2nnsc12 in this test?
Response given: inactive

Challenge: So what was the verdict on COC(=O)CSc1cc(N=c2sc(=O)n3n2CCCC3)c(F)cc1Cl in this test?
Response given: inactive

Challenge: So what was the verdict on CCCCC(CC)COC(=O)c1ccccc1C(=O)O (stereo not given) in this test?
Response given: inactive

Challenge: So what was the verdict on Cc1nn(C)c(Oc2ccccc2)c1C=NOCc1ccc(C(=O)OC(C)(C)C)cc1 in this test?
Response given: inactive

Challenge: So what was the verdict on CCOC(=O)C(C)Oc1ccc(Oc2nc3ccc(Cl)cc3o2)cc1 (stereo not given) in this test?
Response given: inactive

Challenge: So what was the verdict on C[C@]12CC[C@@H]3c4ccc(O)cc4C[C@@H](CCCCCCCCCS(=O)CCCC(F)(F)C(F)(F)F)[C@H]3[C@@H]1CC[C@@H]2O (stereo not given in full) in this test?
Response given: inactive

Challenge: So what was the verdict on CCCOC(=O)NCCCN(C)C in this test?
Response given: inactive

Challenge: So what was the verdict on O=C(c1ccccc1)C1CCCCC1 in this test?
Response given: inactive

Challenge: So what was the verdict on CCCN(CCC)C(=O)SCC in this test?
Response given: inactive

Challenge: So what was the verdict on CCC(C)OC(=O)N1CCCCC1CCO (stereo not given) in this test?
Response given: inactive

Challenge: So what was the verdict on COC(=O)c1ccc(I)cc1S(=O)(=O)NC(=O)Nc1nc(C)nc(OC)n1 in this test?
Response given: inactive

====

Read-out: glucuronosyltransferase (UGT1A1), UGT1A1 (gene 54658)
Test: CLD_UGT1A1_48hr: CellzDirect (CLD) Gene Expression Assay for glucuronosyltransferase (UGT1A1) at 48 hours (AID 2283709);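 also: actives increase expression relative to DMSO so potency refers to induction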
Results filed as inconclusive are left out. The source made the active and inactive calls. The calls were made as follows: active = hit-call score of the fitted dose curve at least 0.9, where 1 is the maximum; inconclusive = response in the unintended direction; inactive = score below 0.9.
QUANTITY_MEASURED: AC50

Challenge: Using the record for CCN(CC)C(=O)c1cccc(C)c1 , state its measured AC50.
Response given: inactive

Challenge: Using the record for O=C(O)C1(C(=O)Nc2ccc(Cl)cc2Cl)CC1 , state its measured AC50.
Response given: inactive

Challenge: Using the record for CCC(C)OC(=O)N1CCCCC1CCO (stereo unspecified) , state its measured AC50.
Response given: inactive

Challenge: Using the record for CCOC(=O)NCCOc1ccc(Oc2ccccc2)cc1 , state its measured AC50.
Response given: 20 µM (active)

Challenge: Using the record for CCOC(=O)COc1cc(-n2ncc(C(F)(F)F)c(C)c2=O)c(F)cc1Cl , state its measured AC50.
Response given: inactive

Now look at this one.
Challenge: Using the record for O=C(Nc1ccc([N+](=O)[O-])cc1Cl)c1cc(Cl)ccc1O , state its measured AC50.
Response given: inactive

====

Read-out: Pro-epidermal growth factor (Homo sapiens)
Assay: LTEA_HepaRG_EGF: Life Technologies and Expression Analysis (LTEA) Assay for Epidermal growth factor (EGF) using HepaRG (AID 2283489)
Conditions: mRNA level, 48 h; actives raise or lower the signal
Active and inactive are the calls of the source. The calls were made as follows: active = hit-call score of the fitted dose curve at least 0.9, where 1 is the maximum; inactive = score below 0.9.
QUANTITY_MEASURED: AC50

Answered cases to consult:
Challenge: Using the record for CC(=O)[C@H]1CC[C@H]2[C@@H]3CCC4=CC(=O)CC[C@]4(C)[C@H]3CC[C@]12C , state its measured AC50.
Response given: 82 µM (active)

Challenge: Using the record for O=C(Nc1ccc([N+](=O)[O-])cc1Cl)c1cc(Cl)ccc1O , state its measured AC50.
Response given: 12.1 µM (active)

Challenge: Using the record for CC(C)(c1ccc(O)cc1)c1ccc(O)cc1 , state its measured AC50.
Response given: inactive

Challenge: Using the record for CC(C)CCCCCCc1ccc(O)cc1 , state its measured AC50.
Response given: inactive

Now look at this one.
Challenge: Using the record for CCOC(=O)NCCOc1ccc(Oc2ccccc2)cc1 , state its measured AC50.
Response given: inactive
